Experimental system: 5HT3A receptors (serotonin 3A receptors) (Homo sapiens, UniProt P46098)
Construct: expressed in transfected cells
Sequence (P46098 24-478): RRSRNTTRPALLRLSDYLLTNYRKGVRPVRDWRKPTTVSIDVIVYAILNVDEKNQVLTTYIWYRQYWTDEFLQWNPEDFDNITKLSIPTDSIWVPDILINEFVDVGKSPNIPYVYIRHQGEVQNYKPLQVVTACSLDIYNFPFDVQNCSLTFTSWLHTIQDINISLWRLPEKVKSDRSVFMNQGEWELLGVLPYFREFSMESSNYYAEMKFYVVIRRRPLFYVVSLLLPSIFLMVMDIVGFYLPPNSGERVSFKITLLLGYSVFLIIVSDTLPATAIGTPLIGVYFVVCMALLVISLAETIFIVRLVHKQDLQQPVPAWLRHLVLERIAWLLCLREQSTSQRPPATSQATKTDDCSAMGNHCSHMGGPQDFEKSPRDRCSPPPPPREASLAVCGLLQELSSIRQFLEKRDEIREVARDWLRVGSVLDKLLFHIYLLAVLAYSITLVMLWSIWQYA
Assay comment: Competition binding assay (serotonin 3A receptors), [3H]GR65630
Measurement setup: IC50 [M], [3H]GR65630 competition, HEK 293 membranes expressing 5HT3A
Quantity measured: IC50

>>> print(df.to_string())
                                   compound  quantity_measured  observed_measurement
0  CCN(CC)CCNC(=O)c1cc(Cl)c(N)cc1OC [Metoclopramide, reference compound]               IC50            6.86e-06 M

* * *

System: Sprague-Dawley rat hepatocytes
Assay comment: MetID determination in rat hepatocytes
Assay type: in vitro ADME
Measurement setup: rat hepatocytes
Quantity measured: major metabolic pathway

>>> print(df.to_string())
                                   molecule        quantity_measured  observed_measurement
0  CCN(CCNC(=O)c1cc(Cl)c(N)cc1OC)CCOCCOCCOCCOC [mPEG4-N-Metoclopramide]  major metabolic pathway        N-dealkylation
1  CCN(CCNC(=O)c1cc(Cl)c(N)cc1OC)CCOC [mPEG1-N-Metoclopramide]  major metabolic pathway        N-dealkylation
2  CCN(CC)CCNC(=O)c1cc(Cl)c(N)cc1OC [Metoclopramide, reference compound]  major metabolic pathway        N-dealkylation

* * *

Assay comment: in vivo
Measurement setup: male, Sprague Dawley, rat, plasma, iv, 0.5 mg/kg
Quantity measured: half-life (min)

>>> print(df.to_string())
                                   compound  quantity_measured  observed_measurement
0  CCN(CCNC(=O)c1cc(Cl)c(N)cc1OC)CCOC [mPEG1-N-Metoclopramide]          half-life                    39
1  CCN(CCNC(=O)c1cc(Cl)c(N)cc1OC)CCOCCOCCOCCOCCOCCOCCOCCOC [mPEG8-N-Metoclopramide]          half-life                   145
2  CCN(CCNC(=O)c1cc(Cl)c(N)cc1OC)CCOCCOCCOCCOC [mPEG4-N-Metoclopramide]          half-life                    39
3  CCN(CC)CCNC(=O)c1cc(Cl)c(N)cc1OC [Metoclopramide, reference compound]          half-life                    30
